meta.source: paper PMC4723341

# system.name: HIV-1 RT-associated RNase H activity, V108A RT (Human immunodeficiency virus type 1 group M subtype B, UniProt P04585, V695A)
# Construct: The 1:1 ration between the p66/p51 subunits was also verified
# experiment.description: RNase H activity assay, V108A RT
Could you please report measured IC50 for the items listed next?
Numbers only, in µM.

CC(C)c1ccc(O)c(=O)c(O)c1 [BTP, β-thujaplicinol, reference compound] :: 0.18

Now look at this entry.
Field IC50 (entry N#Cc1ccc(-c2csc(NN=C3C(=O)Nc4ccccc43)n2)cc1 [RMNC6] ) reads 13.1

* * *

# system.name: HIV-1 RT-associated RDDP activity, N474A RT (Human immunodeficiency virus type 1 group M subtype B, UniProt P04585, N1061A)
# Construct: The 1:1 ration between the p66/p51 subunits was also verified
# experiment.description: biochemical
recorded.endpoint: pIC50
Give bare numbers, as −log10 of the molar value.

Notebook: N#Cc1ccc(-c2csc(NN=C3C(=O)Nc4ccccc43)n2)cc1 , pIC50 read as 4.90

* * *

# system.name: HIV-1 RT-associated RDDP activity, E224A RT (Human immunodeficiency virus type 1 group M subtype B, UniProt P04585, E811A)
# Construct: The 1:1 ration between the p66/p51 subunits was also verified
# experiment.description: biochemical
recorded.endpoint: IC50 (µM)
Give bare numbers, in µM.

GET /value?item= N#Cc1ccc(-c2csc(NN=C3C(=O)Nc4ccccc43)n2)cc1 &field=IC50 returns 13.8

* * *

Give measured pIC50 for each item. Keep answers brief.
# system.name: HIV-1 RT-associated RNase H activity, Y188A RT (Human immunodeficiency virus type 1 group M subtype B, UniProt P04585, Y775A)
# Construct: The 1:1 ration between the p66/p51 subunits was also verified
# experiment.description: RNase H activity assay, Y188A RT
Numbers only, as −log10 of the molar value.

CC(C)c1ccc(O)c(=O)c(O)c1 [BTP, β-thujaplicinol, reference compound] :: 6.72

Now examine the next entry.
Consider N#Cc1ccc(-c2csc(NN=C3C(=O)Nc4ccccc43)n2)cc1 . Its measured pIC50 is 5.48

* * *

# system.name: HIV-1 RT-associated RNase H activity, HIV-1 group O RT (Human immunodeficiency virus type 1 group O)
Provide the recorded pIC50 for the entries that follow.
Answers are plain numbers, as −log10 of the molar value.

CC(C)c1ccc(O)c(=O)c(O)c1 [BTP, β-thujaplicinol, reference compound] :: 6.04

Continue with the molecule presented below.
Just so you know, measured pIC50 for N#Cc1ccc(-c2csc(NN=C3C(=O)Nc4ccccc43)n2)cc1 came out at 5.07

* * *

# system.name: HIV-1 RT-associated RDDP activity, Y501A RT (Human immunodeficiency virus type 1 group M subtype B, UniProt P04585, Y1088A)
# Construct: The 1:1 ration between the p66/p51 subunits was also verified
# experiment.description: biochemical
recorded.endpoint: pIC50
One number for each entry, as −log10 of the molar value.

For reference, reported pIC50 for N#Cc1ccc(-c2csc(NN=C3C(=O)Nc4ccccc43)n2)cc1 stands at 5.18

* * *

Please provide measured pIC50 for the entries that follow.
# system.name: HIV-1 RT-associated RNase H activity, P225A RT (Human immunodeficiency virus type 1 group M subtype B, UniProt P04585, P812A)
# Construct: The 1:1 ration between the p66/p51 subunits was also verified
# experiment.description: RNase H activity assay, P225A RT
One number for each entry, as −log10 of the molar value.

CC(C)c1ccc(O)c(=O)c(O)c1 [BTP, β-thujaplicinol, reference compound] :: 6.89

molecule N#Cc1ccc(-c2csc(NN=C3C(=O)Nc4ccccc43)n2)cc1 , pIC50 observed: 5.77
